Target: NK3 (Homo sapiens)
Sequence (P29371 1-465): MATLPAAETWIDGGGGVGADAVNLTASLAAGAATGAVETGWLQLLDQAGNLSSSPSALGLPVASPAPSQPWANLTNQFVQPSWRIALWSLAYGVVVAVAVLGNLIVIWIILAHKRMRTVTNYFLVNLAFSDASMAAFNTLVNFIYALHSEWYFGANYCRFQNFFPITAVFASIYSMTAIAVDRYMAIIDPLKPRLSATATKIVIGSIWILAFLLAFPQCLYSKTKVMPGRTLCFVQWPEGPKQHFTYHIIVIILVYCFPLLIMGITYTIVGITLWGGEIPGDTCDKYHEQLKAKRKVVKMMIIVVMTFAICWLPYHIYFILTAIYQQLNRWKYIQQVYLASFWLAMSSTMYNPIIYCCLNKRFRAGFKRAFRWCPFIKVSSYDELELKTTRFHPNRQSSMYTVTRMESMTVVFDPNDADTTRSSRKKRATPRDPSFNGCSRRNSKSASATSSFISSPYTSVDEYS
Assay: Signal transduction (ST), intracellular Ca++ (FLIPR), NK3
Assay type: cell-based
Conditions: antagonist, read-out: NK3 pIC50 (converted)
value_type: IC50 (µM)
The response must be a number in µM with no trailing unit.

Ask | Looking for the measured IC50 of O=C1OC(CC(=O)N2CCC3(CC2)CCN([C@H]2CCN(C(=O)c4cc(C(F)(F)F)cc(C(F)(F)F)c4)[C@H](Cc4ccccc4)C2)CC3)c2ccccc21 (stereo partly shown) , can you help?
Reply | 8.91

Ask | Looking for the measured IC50 of O=C(c1cc(C(F)(F)F)cc(C(F)(F)F)c1)N1CC[C@H](N2CCC3(CCN(C(=O)C45CC6CC(CC(C6)C4)C5)CC3)CC2)C[C@H]1Cc1ccccc1 , can you help?
Reply | 4.68

Ask | Looking for the measured IC50 of O=C1CCC(C(=O)N2CCC3(CC2)CCN([C@H]2CCN(C(=O)c4cc(C(F)(F)F)cc(C(F)(F)F)c4)[C@H](Cc4ccc(F)c(F)c4)C2)CC3)N1 (stereo partly shown) , can you help?
Reply | 0.955

Ask | Looking for the measured IC50 of O=C(C1CCOC1)N1CCCC2(CCCN(C3CCN(C(=O)c4cc(C(F)(F)F)cc(C(F)(F)F)c4)C(Cc4ccccc4)C3)C2)C1 (single isomer, unassigned) [Compound 210] , can you help?
Reply | 1.78

Ask | Looking for the measured IC50 of Cc1occc1C(=O)N1CCC2(CC1)CCN([C@H]1CCN(C(=O)c3cc(C(F)(F)F)cc(C(F)(F)F)c3)[C@H](Cc3ccccc3)C1)CC2 , can you help?
Reply | 3.31

Ask | Looking for the measured IC50 of N#Cc1ccc(S(=O)(=O)N2CCC3(CCN(C4CCN(C(=O)c5cc(C(F)(F)F)cc(C(F)(F)F)c5)C(Cc5ccccc5)C4)CC3)CC2)cc1 (stereo not shown) , can you help?
Reply | 1.58

Ask | Looking for the measured IC50 of O=C(c1ccoc1)N1CCC2(CC1)CCN([C@H]1CCN(C(=O)c3cc(C(F)(F)F)cc(C(F)(F)F)c3)[C@H](Cc3ccccc3)C1)CC2 , can you help?
Reply | 1.32

Ask | Looking for the measured IC50 of O=C(C1CCOC1)N1CCC2(CC1)CCN([C@H]1CCN(C(=O)c3cc(C(F)(F)F)cc(C(F)(F)F)c3)[C@H](Cc3ccc(F)c(F)c3)C1)CC2 (stereo partly shown) , can you help?
Reply | 1.7

Ask | Looking for the measured IC50 of O=C1CC2(CCN1CC1CCC1)CCN([C@@H]1CCN(C(=O)c3cc(C(F)(F)F)cc(C(F)(F)F)c3)[C@H](Cc3ccccc3)C1)CC2 , can you help?
Reply | 6.46

Ask | Looking for the measured IC50 of Cc1nc(S(=O)(=O)N2CCC3(CCN([C@H]4CCN(C(=O)c5cc(C(F)(F)F)cc(C(F)(F)F)c5)[C@H](Cc5ccccc5)C4)CC3)CC2)cn1C , can you help?
Reply | 0.331

Ask | Looking for the measured IC50 of O=C(c1ccsc1)N1CCC2(CCN(C[C@H]3CCN(C(=O)c4cc(C(F)(F)F)cc(C(F)(F)F)c4)[C@H](Cc4ccccc4)C3)CC2)CC1 , can you help?
Reply | 9.12

====

Give IC50 for every item shown.
target: NK2 (Homo sapiens); test: Signal transduction (ST), intracellular Ca++ (FLIPR), NK2; assay type: cell-based; conditions: antagonist, read-out: NK2 pIC50 (converted)
The response must be a number in µM with no trailing unit.

Ask | Looking for the measured IC50 of Cc1nnsc1C(=O)N1CCC2(CCN(C[C@H]3CCN(C(=O)c4cc(C(F)(F)F)cc(C(F)(F)F)c4)[C@H](Cc4ccccc4)C3)CC2)CC1 , can you help?
Reply | 7.76

Ask | Looking for the measured IC50 of O=C1CC2(CCN1Cc1ccoc1)CCN([C@H]1CCN(C(=O)c3cc(C(F)(F)F)cc(C(F)(F)F)c3)[C@H](Cc3ccccc3)C1)CC2 , can you help?
Reply | 2.75

Ask | Looking for the measured IC50 of O=C1CC2(CCN1Cc1ccoc1)CCN([C@@H]1CCN(C(=O)c3cc(C(F)(F)F)cc(C(F)(F)F)c3)[C@H](Cc3ccccc3)C1)CC2 , can you help?
Reply | 4.79

====

Give IC50 for every item shown.
Molecular target: NK2 (Homo sapiens, UniProt P21452)
Sequence (P21452 whole entry): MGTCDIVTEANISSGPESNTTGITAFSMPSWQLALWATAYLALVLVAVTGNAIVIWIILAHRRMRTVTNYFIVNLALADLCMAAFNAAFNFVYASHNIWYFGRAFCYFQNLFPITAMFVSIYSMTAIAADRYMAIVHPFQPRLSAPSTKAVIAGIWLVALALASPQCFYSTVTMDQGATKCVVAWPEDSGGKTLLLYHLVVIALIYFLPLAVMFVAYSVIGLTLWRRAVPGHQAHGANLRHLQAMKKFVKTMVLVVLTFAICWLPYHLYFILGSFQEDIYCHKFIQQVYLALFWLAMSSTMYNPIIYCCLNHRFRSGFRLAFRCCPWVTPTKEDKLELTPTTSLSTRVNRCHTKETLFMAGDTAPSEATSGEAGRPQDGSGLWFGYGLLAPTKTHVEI
Assay: Signal transduction (ST), intracellular Ca++ (FLIPR), NK2
Assay type: cell-based
Details: antagonist, read-out: NK2 pIC50 (converted)
Method: [The source words this procedure for another target and reports this target under the same test.] This test evaluates in vitro functional NK1 antagonistic activity. For the measurements of intracellular Ca^++ concentrations the cells were grown on 96-well (black wall/transparent bottom) plates from Costar for 2 days until they reached confluence. […] The cells were preincubated with a concentration range of antagonists for 20 min at RT and Ca^++-signals after addition of the agonists were measured in a Fluorescence Image Plate Reader (FLIPR from Molecular Devices, Crawley, England). […]
The response must be a number in µM with no trailing unit.

Ask | Looking for the measured IC50 of O=C(C1CCOC1)N1CCC2(CCN(C[C@H]3CCN(C(=O)c4cc(C(F)(F)F)cc(C(F)(F)F)c4)[C@H](Cc4ccccc4)C3)CC2)CC1 (stereo partly shown) , can you help?
Reply | 8.32

Ask | Looking for the measured IC50 of O=C(C1CCOC1)N1CCC2(CC1)CCN([C@H]1CCN(C(=O)c3cc(C(F)(F)F)cc(C(F)(F)F)c3)[C@H](Cc3ccc(F)c(F)c3)C1)CC2 (stereo partly shown) , can you help?
Reply | 3.47

Ask | Looking for the measured IC50 of CC1CCCCC1C(=O)N1CCC2(CC1)CCN([C@@H]1CCN(C(=O)c3cc(C(F)(F)F)cc(C(F)(F)F)c3)[C@H](Cc3ccccc3)C1)CC2 (stereo partly shown) , can you help?
Reply | 4.79

Ask | Looking for the measured IC50 of O=C(CC1C=CCC1)N1CCC2(CC1)CCN([C@H]1CCN(C(=O)c3cc(C(F)(F)F)cc(C(F)(F)F)c3)[C@H](Cc3ccccc3)C1)CC2 (stereo partly shown) , can you help?
Reply | 5.37

Ask | Looking for the measured IC50 of CC1CC1C(=O)N1CCC2(CC1)CCN([C@H]1CCN(C(=O)c3cc(C(F)(F)F)cc(C(F)(F)F)c3)[C@H](Cc3ccccc3)C1)CC2 (stereo partly shown) , can you help?
Reply | 3.16

Ask | Looking for the measured IC50 of N#Cc1ccc(C(=O)N2CCC3(CC2)CCN([C@H]2CCN(C(=O)c4cc(C(F)(F)F)cc(C(F)(F)F)c4)[C@H](Cc4ccccc4)C2)CC3)cc1 , can you help?
Reply | 3.63

Ask | Looking for the measured IC50 of O=C(C1CC1)N1CCC2(CC1)CCN([C@H]1CCN(C(=O)c3cc(C(F)(F)F)cc(C(F)(F)F)c3)[C@H](Cc3ccc(Cl)c(Cl)c3)C1)CC2 , can you help?
Reply | 0.776

Ask | Looking for the measured IC50 of O=C(c1cnc2ccccc2n1)N1CCC2(CC1)CCN([C@H]1CCN(C(=O)c3cc(C(F)(F)F)cc(C(F)(F)F)c3)[C@H](Cc3ccccc3)C1)CC2 , can you help?
Reply | 3.72

Ask | Looking for the measured IC50 of COc1ccc(S(=O)(=O)N2CCC3(CCN([C@H]4CCN(C(=O)c5cc(C(F)(F)F)cc(C(F)(F)F)c5)[C@H](Cc5ccccc5)C4)CC3)CC2)cc1 , can you help?
Reply | 1.2

Ask | Looking for the measured IC50 of O=C(C1CCOC1)N1CCC2(CC1)CCN([C@H]1CCN(C(=O)c3cc(C(F)(F)F)cc(C(F)(F)F)c3)[C@H](Cc3ccc(Cl)c(Cl)c3)C1)CC2 (stereo partly shown) , can you help?
Reply | 1.7

Ask | Looking for the measured IC50 of O=C(c1cc(C(F)(F)F)cc(C(F)(F)F)c1)N1CC[C@H](N2CCC3(CCN(C(=O)C4(c5ccccc5)CCCC4)CC3)CC2)C[C@H]1Cc1ccccc1 , can you help?
Reply | 5.37

Ask | Looking for the measured IC50 of O=C(c1ccsc1)N1CCC2(CC1)CCN([C@H]1CCN(C(=O)c3cc(C(F)(F)F)cc(C(F)(F)F)c3)[C@H](Cc3ccc(F)c(F)c3)C1)CC2 , can you help?
Reply | 5.89

Ask | Looking for the measured IC50 of CC1(C)OC(=O)CC1C(=O)N1CCC2(CC1)CCN([C@H]1CCN(C(=O)c3cc(C(F)(F)F)cc(C(F)(F)F)c3)[C@H](Cc3ccc(F)c(F)c3)C1)CC2 (stereo partly shown) , can you help?
Reply | 4.68

Ask | Looking for the measured IC50 of O=C(c1ccsc1)N1CCC2(CC1)CCN(C(=O)[C@H]1CCN(C(=O)c3cc(C(F)(F)F)cc(C(F)(F)F)c3)[C@H](Cc3ccccc3)C1)CC2 , can you help?
Reply | 6.76

Ask | Looking for the measured IC50 of O=C(C1CCOC1)N1CCCC2(CCCN(C3CCN(C(=O)c4cc(C(F)(F)F)cc(C(F)(F)F)c4)C(Cc4ccccc4)C3)C2)C1 (single isomer, unassigned) [Compound 210] , can you help?
Reply | 1.82
